# study_system: E. coli PanK (CoAA) (Escherichia coli, UniProt P0A6I3)
# Sequence (P0A6I3 whole entry): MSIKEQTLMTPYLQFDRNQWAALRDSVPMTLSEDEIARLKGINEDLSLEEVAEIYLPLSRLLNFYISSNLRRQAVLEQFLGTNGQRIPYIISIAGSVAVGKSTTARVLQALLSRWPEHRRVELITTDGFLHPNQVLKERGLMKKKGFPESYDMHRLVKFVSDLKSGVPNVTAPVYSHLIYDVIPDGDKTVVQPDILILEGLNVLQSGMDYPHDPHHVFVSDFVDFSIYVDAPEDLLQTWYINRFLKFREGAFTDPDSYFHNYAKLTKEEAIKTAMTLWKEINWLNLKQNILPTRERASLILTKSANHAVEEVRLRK
# measurement_notes: Kinetic assay of pantetheine analogs as substrates of PanK
# Assay type: biochemical
# measurement_context: compound as substrate of E. coli PanK
Each item that follows carries a reported kcat.
# value in s⁻¹; strip the unit string

Guide cases for kcat, answers given:
CN(C)c1cccc2c(S(=O)(=O)NCCNC(=O)CCNC(=O)[C@H](O)C(C)(C)CO)cccc12 [Compound 14]
0.2877
CC(C)(CO)[C@@H](O)C(=O)NCCN=[N+]=[N-] [Compound 1]
0.3722
CC(=O)CCC(=O)NCCOCCOCCNC(=O)[C@H](O)C(C)(C)CO [Compound 6]
0.0267
CN(C)c1ccc2c(CC(=O)NCCOCCOCCNC(=O)[C@H](O)C(C)(C)CO)cc(=O)oc2c1 [Compound 17]
0.1677
CN(C)c1ccc2c(CC(=O)NCCCOCCNC(=O)[C@H](O)C(C)(C)CO)cc(=O)oc2c1 [Compound 15]
0.0227
CC(C)(CO)[C@@H](O)C(=O)NCCC(=O)NCCN=[N+]=[N-] [Compound 3]
0.46695
CN(C)c1ccc2c(CC(=O)NCCNC(=O)[C@H](O)C(C)(C)CO)cc(=O)oc2c1 [Compound 12]
0.1927
C#CCNC(=O)CCNC(=O)[C@H](O)C(C)(C)CO [Compound 2]
0.5242
CN(C)c1ccc2c(CC(=O)NCCOCCCNC(=O)[C@H](O)C(C)(C)CO)cc(=O)oc2c1 [Compound 16]
0.0167
CC(=O)CCC(=O)NCCNC(=O)CCNC(=O)[C@H](O)C(C)(C)CO [Compound 4]
0.344

In: Supply measured kcat of CN(C)c1ccc2c(CC(=O)NCCCCCCNC(=O)CCNC(=O)[C@H](O)C(C)(C)CO)cc(=O)oc2c1 [Compound 13] in your reply.
Out: 0.3193

In: Supply measured kcat of CC(C)(CO)[C@@H](O)C(=O)NCCOCCOCCNC(=O)CCN=[N+]=[N-] [Compound 7] in your reply.
Out: 0.103

In: Supply measured kcat of CC(C)(CO)[C@@H](O)C(=O)NCCC(=O)NCCNC(=O)CCN=[N+]=[N-] [Compound 5] in your reply.
Out: 0.6818

* * *

# study_system: E. coli PanK (CoAA) (Escherichia coli)
# measurement_notes: Kinetic assay of pantetheine analogs as substrates of PanK
# Assay type: biochemical
measured_quantity: Km compared with natural substrate pantothenate (fold higher)

CC(C)(CO)[C@@H](O)C(=O)NCCN=[N+]=[N-]
20 fold
CC(C)(CO)[C@@H](O)C(=O)NCCC(=O)NCCNC(=O)CCN=[N+]=[N-]
two fold higher
CN(C)c1ccc2c(CC(=O)NCCOCCOCCNC(=O)[C@H](O)C(C)(C)CO)cc(=O)oc2c1
two-fold higher
CN(C)c1ccc2c(CC(=O)NCCCCCCNC(=O)CCNC(=O)[C@H](O)C(C)(C)CO)cc(=O)oc2c1
the same as
CN(C)c1cccc2c(S(=O)(=O)NCCNC(=O)CCNC(=O)[C@H](O)C(C)(C)CO)cccc12
the same as
CC(=O)CCC(=O)NCCNC(=O)CCNC(=O)[C@H](O)C(C)(C)CO
two fold higher

Pending compound:
In: Supply measured Km compared with natural substrate pantothenate (fold higher) of CC(C)(CO)[C@@H](O)C(=O)NCCOCCOCCNC(=O)CCN=[N+]=[N-] in your reply.
Out: two-fold higher
